System: L1210 leukemia ip in BDF1 mice, survival T/C
Assay: NCI In Vivo Anticancer Drug Screen. Data for tumor model L1210 Leukemia (intraperitoneal) in B6D2F1 (BDF1) mice
Details: endpoint: mean survival time; dose: 400.0 mg/kg/injection; schedule: Q04DX003 (ip); vehicle: saline with Tween-80; higher = longer survival
Toxic doses and inconclusive results are not listed.
Field: T/C. Provide a value for each of the compounds that follow.

-- ask T/C lookup needed for COC1OC(COCc2ccccc2)C(OCc2ccccc2)C(OC)C1O (stereo unspecified) , thanks.
-- reply 104 % of control

-- ask T/C lookup needed for `O=c1cc(-c2cccs2)ss1` , thanks.
-- reply 104 % of control

-- ask T/C lookup needed for `c1ccc([Si](c2ccccc2)(c2ccccc2)c2ccccc2)cc1` , thanks.
-- reply 88 % of control

-- ask T/C lookup needed for CCOC(=O)c1ccc(NC(=O)N2CCCCC2C)cc1 (stereo unspecified) , thanks.
-- reply 96 % of control

-- ask T/C lookup needed for `O=Cc1cc2c(cc1[N+](=O)[O-])OCO2` , thanks.
-- reply 95 % of control

-- ask T/C lookup needed for `CN(C(=O)CCCO)c1cc([N+](=O)[O-])ccc1OCc1ccccc1` , thanks.
-- reply 92 % of control

-- ask T/C lookup needed for `COC(=O)CNC(=O)CCNC(=O)OCc1ccccc1` , thanks.
-- reply 98 % of control

-- ask T/C lookup needed for `O=C(Nc1ccc(Cl)cc1)Nc1ccccc1F` , thanks.
-- reply 89 % of control

-- ask T/C lookup needed for `Br/C=C(\Br)C[N+]12CN3CN(CN(C3)C1)C2` , thanks.
-- reply 101 % of control

-- ask T/C lookup needed for `CCCCCCCCCCCCOc1ccc(Br)cc1` , thanks.
-- reply 96 % of control

-- ask T/C lookup needed for COc1cc2ccnc(C(OC(=O)c3ccccc3)c3ccc(OCc4ccccc4)cc3)c2cc1OC (stereo unspecified) , thanks.
-- reply 95 % of control

-- ask T/C lookup needed for `O=C1CCC(=O)N1C1C=CC=CC=C1` , thanks.
-- reply 96 % of control

-- ask T/C lookup needed for `CN(C)C(=O)Nc1cccc(OC(=O)NC2CC2)c1` , thanks.
-- reply 90 % of control

-- ask T/C lookup needed for `CC1=CC(=O)N(NC(N)=O)C1=O` , thanks.
-- reply 105 % of control

-- ask T/C lookup needed for `CC(=O)Oc1ccc(C2C3=C(COC3=O)CC3=C2C(=O)OC3)cc1` , thanks.
-- reply 96 % of control

-- ask T/C lookup needed for OCCOC1CCCCC=C1Br (stereo unspecified) , thanks.
-- reply 102 % of control

-- ask T/C lookup needed for `CC1=NN(c2cccc(S(=O)(=O)O)c2)C(=O)C1` , thanks.
-- reply 89 % of control

-- ask T/C lookup needed for O=C(O)CCCN1C(=O)C2C3CCC(C3)C2C1=O (stereo unspecified) , thanks.
-- reply 107 % of control

-- ask T/C lookup needed for `S=C1SCN(C2CCCCCCCCCCC2)CN1C1CCCCCCCCCCC1` , thanks.
-- reply 95 % of control

-- ask T/C lookup needed for `Cc1cc2c(cc1O)C(C)(C)CCC2(C)C` , thanks.
-- reply 97 % of control

-- ask T/C lookup needed for `C=CCc1c(F)c(F)c(F)c(F)c1F` , thanks.
-- reply 98 % of control

-- ask T/C lookup needed for `CCCCCCCC(=O)Nc1ccccc1CC` , thanks.
-- reply 86 % of control

-- ask T/C lookup needed for `CC1(C)c2ccccc2Nc2ccccc21` , thanks.
-- reply 98 % of control

-- ask T/C lookup needed for `CC(C)(COCOCC(C)(C)[N+](=O)[O-])[N+](=O)[O-]` , thanks.
-- reply 100 % of control

-- ask T/C lookup needed for `O=C1OCCN1c1ccc(S(=O)(=O)c2ccc(N3CCOC3=O)cc2)cc1` , thanks.
-- reply 96 % of control

-- ask T/C lookup needed for `O=C(Nc1ccccc1C(F)(F)F)c1ccc(C(=O)Nc2ccccc2C(F)(F)F)cc1` , thanks.
-- reply 91 % of control

-- ask T/C lookup needed for `CCOC(=O)c1c(NC(=O)CCC(=O)Nc2sc(C)c(C)c2C(=O)OCC)sc(C)c1C` , thanks.
-- reply 88 % of control

-- ask T/C lookup needed for `Cc1nc2[nH]c(=O)[nH]c(=O)c2[nH]1` , thanks.
-- reply 90 % of control

-- ask T/C lookup needed for `S=c1sc2ccccc2n1CN(c1ccccc1)c1ccc2ccccc2c1` , thanks.
-- reply 93 % of control

-- ask T/C lookup needed for `Clc1ccc(N/N=C(\Oc2ccccc2)c2ccccc2)cc1` , thanks.
-- reply 98 % of control

-- ask T/C lookup needed for CSc1ccc(NS(=O)(=O)CCNC(=O)C(O)C(C)(C)CO)cc1 (stereo unspecified) , thanks.
-- reply 109 % of control

// provenance: PubChem BioAssay AID248
